- experimental_system: mouse TMEM16A mutant I516A (Mus musculus, UniProt Q8BHY3, I516A)
- Construct: expressed in transfected cells; host or cells: HEK293T
- Sequence (Q8BHY3 1-960 I516A): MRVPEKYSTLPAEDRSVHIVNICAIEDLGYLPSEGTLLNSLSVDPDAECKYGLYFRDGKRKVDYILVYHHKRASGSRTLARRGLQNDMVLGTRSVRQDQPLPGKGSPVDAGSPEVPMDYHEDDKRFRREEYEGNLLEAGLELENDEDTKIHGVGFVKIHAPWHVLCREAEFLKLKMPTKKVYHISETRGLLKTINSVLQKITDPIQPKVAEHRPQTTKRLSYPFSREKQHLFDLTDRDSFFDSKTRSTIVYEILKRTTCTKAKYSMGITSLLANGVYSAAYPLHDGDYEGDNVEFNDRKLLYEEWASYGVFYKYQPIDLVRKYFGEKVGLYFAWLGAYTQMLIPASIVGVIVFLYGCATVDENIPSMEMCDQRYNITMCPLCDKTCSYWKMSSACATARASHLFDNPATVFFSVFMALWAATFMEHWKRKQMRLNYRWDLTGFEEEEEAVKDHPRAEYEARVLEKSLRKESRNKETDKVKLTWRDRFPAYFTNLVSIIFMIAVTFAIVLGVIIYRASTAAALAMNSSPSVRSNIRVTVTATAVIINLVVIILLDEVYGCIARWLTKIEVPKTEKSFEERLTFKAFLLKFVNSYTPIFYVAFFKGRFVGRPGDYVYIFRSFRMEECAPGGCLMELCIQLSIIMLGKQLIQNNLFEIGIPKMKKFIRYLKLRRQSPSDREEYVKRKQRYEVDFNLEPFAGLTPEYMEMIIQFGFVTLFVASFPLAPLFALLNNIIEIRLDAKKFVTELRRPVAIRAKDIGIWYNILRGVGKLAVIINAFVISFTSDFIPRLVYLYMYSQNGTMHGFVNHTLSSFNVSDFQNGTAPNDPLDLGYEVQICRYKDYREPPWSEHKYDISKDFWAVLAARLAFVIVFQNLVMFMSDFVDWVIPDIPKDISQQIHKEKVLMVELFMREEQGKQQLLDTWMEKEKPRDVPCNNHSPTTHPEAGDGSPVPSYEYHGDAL
- assay_overview: Inside-out patch recording of 1PBC block, mutant I516A
- Format: cell-based
- setup_conditions: 80 mV; 2 µM Ca2+
pIC50: −log10 of the molar value.
experimental_readout: pIC50

INSERT INTO measurements (test_smiles, recorded_measurement) VALUES
  ('N#Cc1c(C(F)(F)F)cc(O)n2c1nc1ccccc12', 5.40);

====

- experimental_system: mouse TMEM16A mutant R515A (Mus musculus, UniProt Q8BHY3, R515A)
- Construct: expressed in transfected cells; host or cells: HEK293T
- assay_overview: Inside-out patch recording of 1PBC block, mutant R515A
- Format: cell-based
- setup_conditions: -60 mV; 4 µM Ca2+
pIC50: −log10 of the molar value.
experimental_readout: pIC50

INSERT INTO results (test_smiles, experimental_readout, recorded_measurement) VALUES
  ('N#Cc1c(C(F)(F)F)cc(O)n2c1nc1ccccc12', 'pIC50', 3.82);

====

- experimental_system: mouse TMEM16A mutant Q637A (Mus musculus, UniProt Q8BHY3, Q637A)
- Construct: expressed in transfected cells; host or cells: HEK293T
- assay_overview: Inside-out patch recording of 1PBC block, mutant Q637A
- Format: cell-based
- setup_conditions: Q637A; V 20 mV
pIC50: −log10 of the molar value.
experimental_readout: pIC50

INSERT INTO results (test_smiles, recorded_measurement) VALUES
  ('N#Cc1c(C(F)(F)F)cc(O)n2c1nc1ccccc12', 5.85);

====

- experimental_system: mouse TMEM16A mutant R535A (Mus musculus, UniProt Q8BHY3, R535A)
- Construct: expressed in transfected cells; host or cells: HEK293T
- assay_overview: Inside-out patch recording of 1PBC block, mutant R535A
- Type: cell-based
- setup_conditions: 120 mV; 2 µM Ca2+
experimental_readout: IC50 (µM)

INSERT INTO measurements (test_smiles, unit_of_measurement, recorded_measurement) VALUES
  ('N#Cc1c(C(F)(F)F)cc(O)n2c1nc1ccccc12', 'µM', 5.53);

====

- experimental_system: mouse TMEM16A mutant K603Q (Mus musculus, UniProt Q8BHY3, K603Q)
- Construct: expressed in transfected cells; host or cells: HEK293T
- assay_overview: Inside-out patch recording of 1PBC block, mutant K603Q
- Assay type: cell-based
- setup_conditions: K603Q; V 20 mV
experimental_readout: IC50

INSERT INTO results (compound, recorded_measurement) VALUES
  ('N#Cc1c(C(F)(F)F)cc(O)n2c1nc1ccccc12 [1PBC]', '206 µM');

====

- experimental_system: wild-type mouse TMEM16A (Mus musculus)
- Construct: expressed in transfected cells; host or cells: HEK293T
- assay_overview: Inside-out patch recording of 1PBC block, wild-type TMEM16A
- Type: cell-based
- setup_conditions: zero mV; saturating Ca2+ concentration (2 µM); applied from the intracellular side
pIC50: −log10 of the molar value.
experimental_readout: pIC50

INSERT INTO assay_data (test_smiles, recorded_measurement) VALUES
  ('N#Cc1c(C(F)(F)F)cc(O)n2c1nc1ccccc12', '~5.40');

====

- experimental_system: mouse TMEM16A mutant T539A (Mus musculus, UniProt Q8BHY3, T539A)
- Construct: expressed in transfected cells; host or cells: HEK293T
- assay_overview: Inside-out patch recording of 1PBC block, mutant T539A
- Format: cell-based
- setup_conditions: -140 mV; 2 µM Ca2+
- Procedure: HEK293T cells (ATCC CRL-1573) were maintained in Dulbecco’s modified Eagle’s medium (DMEM; Sigma-Aldrich) supplemented with 10 U ml^−1 penicillin, 0.1 mg ml^−1 streptomycin (Sigma-Aldrich), 2 mM L-glutamine (Sigma-Aldrich), and 10% FBS (Sigma-Aldrich) in a humidified atmosphere containing 5% CO2 at 37 °C. […]
experimental_readout: IC50 (µM)

INSERT INTO assay_data (test_smiles, experimental_readout, recorded_measurement) VALUES
  ('N#Cc1c(C(F)(F)F)cc(O)n2c1nc1ccccc12', 'IC50', 44.4);

====

- experimental_system: mouse TMEM16A mutant T518A (Mus musculus, UniProt Q8BHY3, T518A)
- Construct: expressed in transfected cells; host or cells: HEK293T
- assay_overview: Inside-out patch recording of 1PBC block, mutant T518A
- Type: cell-based
- setup_conditions: -20 mV; 2 µM Ca2+
pIC50: −log10 of the molar value.
experimental_readout: pIC50

INSERT INTO assay_data (compound, experimental_system, recorded_measurement) VALUES
  ('N#Cc1c(C(F)(F)F)cc(O)n2c1nc1ccccc12 [1PBC]', 'mouse TMEM16A mutant T518A (Mus musculus, UniProt Q8BHY3, T518A)', 5.14);

====

- experimental_system: mouse TMEM16A mutant I636A (Mus musculus, UniProt Q8BHY3, I636A)
- Construct: expressed in transfected cells; host or cells: HEK293T
- assay_overview: Inside-out patch recording of 1PBC block, mutant I636A
- Format: cell-based
- setup_conditions: I636A; V -80 mV
pIC50: −log10 of the molar value.
experimental_readout: pIC50

INSERT INTO assay_data (test_smiles, experimental_system, recorded_measurement) VALUES
  ('N#Cc1c(C(F)(F)F)cc(O)n2c1nc1ccccc12', 'mouse TMEM16A mutant I636A (Mus musculus, UniProt Q8BHY3, I636A)', 4.79);

====

- experimental_system: mouse TMEM16A mutant Y514A (Mus musculus, UniProt Q8BHY3, Y514A)
- Construct: expressed in transfected cells; host or cells: HEK293T
- assay_overview: Inside-out patch recording of 1PBC block, mutant Y514A
- Assay type: cell-based
- setup_conditions: Y514A; V -40 mV
pIC50: −log10 of the molar value.
experimental_readout: pIC50

INSERT INTO results (test_smiles, experimental_readout, recorded_measurement) VALUES
  ('N#Cc1c(C(F)(F)F)cc(O)n2c1nc1ccccc12', 'pIC50', 4.49);

====

- experimental_system: mouse TMEM16A mutant R535A (Mus musculus, UniProt Q8BHY3, R535A)
- Construct: expressed in transfected cells; host or cells: HEK293T
- assay_overview: Inside-out patch recording of 1PBC block, mutant R535A
- Format: cell-based
- setup_conditions: R535A; V -140 mV
pIC50: −log10 of the molar value.
experimental_readout: pIC50

INSERT INTO measurements (molecule, experimental_system, recorded_measurement) VALUES
  ('N#Cc1c(C(F)(F)F)cc(O)n2c1nc1ccccc12 [1PBC]', 'mouse TMEM16A mutant R535A (Mus musculus, UniProt Q8BHY3, R535A)', 4.41);
